From: patent US20240117038A1

# systemTested: T1, cynomolgus CX3CR1 (cynomolgus monkey (Macaca fascicularis), UniProt P49238 1-355 (human entry))
# T1 construct: Overexpressed on CHO K1 cells; also called cyno CX3CR1; cyCX3CR1
# T1 chain: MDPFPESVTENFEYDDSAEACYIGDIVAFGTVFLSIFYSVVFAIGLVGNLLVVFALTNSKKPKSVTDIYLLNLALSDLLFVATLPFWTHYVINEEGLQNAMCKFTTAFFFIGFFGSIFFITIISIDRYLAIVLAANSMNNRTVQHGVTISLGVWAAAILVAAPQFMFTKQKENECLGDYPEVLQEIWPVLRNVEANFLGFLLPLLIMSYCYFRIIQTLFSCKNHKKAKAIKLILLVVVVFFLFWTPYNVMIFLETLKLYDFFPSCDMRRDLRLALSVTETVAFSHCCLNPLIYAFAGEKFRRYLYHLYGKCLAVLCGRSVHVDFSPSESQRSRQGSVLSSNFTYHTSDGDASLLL
# experimentSummary: flow cytometry on CHO K1 cyCX3CR1 cells, 30 uM HSA
Listed below: pEC50 values for each entry.
The read-out pEC50 is expressed as -log10 of concentration in moles per litre.

binder="A041600035 (VHH, Trivalent ISVD construct (two anti-CX3CR1 ISVDs, one anti-albumin ISVD), C-terminal alanine included in the entry; also called 54A12_SO (E1D)-9GS-54A12_SO-9GS-ALB23002-A) DVQLVESGGGSVQPGGSLRLSCAASGSIFSSTAMAWYRQAPGKQRDLVAVISTVGITKYADSVKGRFTISRDNAKNTVYLQMNSLRPEDTALYYCTSDARRGWDTRYWGQGTLVTVSSGGGGSGGGSEVQLVESGGGSVQPGGSLRLSCAASGSIFSSTAMAWYRQAPGKQRDLVAVISTVGITKYADSVKGRFTISRDNAKNTVYLQMNSLRPEDTALYYCTSDARRGWDTRYWGQGTLVTVSSGGGGSGGGSEVQLVESGGGVVQPGGSLRLSCAASGFTFRSFGMSWVRQAPGKGPEWVSSISGSGSDTLYADSVKGRFTISRDNSKNTLYLQMNSLRPEDTALYYCTIGGSLSRSSQGTLVTVSSA" valuemeasured=9.62

// below: pEC50 requested for another binder
Qu. Return the recorded pEC50 value; entry: A041600085 (VHH, also called 307-9GS-ALB23002-9GS-307 (D1E)-A) DVQLVESGGGLVQPGGSLRLSCAASGSIFSSTAMAWYRQAPGKRRDLVAAISTVGVTKYADSVKGRFTISRDNSKNTVYLQMNSLRPEDTAVYYCTSDPRRGWDTRYWGQGTLVTVSSGGGGSGGGSEVQLVESGGGVVQPGGSLRLSCAASGFTFRSFGMSWVRQAPGKGPEWVSSISGSGSDTLYADSVKGRFTISRDNSKNTLYLQMNSLRPEDTALYYCTIGGSLSRSSQGTLVTVSSGGGGSGGGSEVQLVESGGGLVQPGGSLRLSCAASGSIFSSTAMAWYRQAPGKRRDLVAAISTVGVTKYADSVKGRFTISRDNSKNTVYLQMNSLRPEDTAVYYCTSDPRRGWDTRYWGQGTLVTVSSA
Ans. 9.25
